# measured-target: D. immitis iPGM (Dirofilaria immitis, UniProt F4ZE01)
# assay-protocol: biochemical
# conditions: IC50 (M)

# molecule, IC50 (M)
measured = [
    ("CC(C)C[C@H](NC(=O)[C@H](Cc1ccc(O)cc1)NC(=O)[C@@H]1CSCC(=O)N[C@H](Cc2ccc(O)cc2)C(=O)N[C@@H](CC(=O)O)C(=O)N[C@@H](Cc2ccc(O)cc2)C(=O)N2CCC[C@H]2C(=O)NCC(=O)N[C@@H](CC(=O)O)C(=O)N[C@@H](Cc2ccc(O)cc2)C(=O)N1)C(=O)N[C@@H](Cc1ccc(O)cc1)C(=O)NCC(=O)N[C@@H](CO)C(=O)N[C@@H](CS)C(N)=O [Ce-2 Thr13Ser]", "2.56e-09"),
    ("CC(C)C[C@H](NC(=O)[C@H](Cc1ccc(O)cc1)NC(=O)[C@@H]1CSCC(=O)N[C@H](Cc2ccc(O)cc2)C(=O)N[C@@H](CC(=O)O)C(=O)N[C@@H](Cc2ccc(O)cc2)C(=O)N2CCC[C@H]2C(=O)NCC(=O)N[C@@H](CC(=O)O)C(=O)N[C@@H](Cc2ccc(O)cc2)C(=O)N1)C(=O)N[C@@H](Cc1ccc(O)cc1)C(=O)NCC(=O)NCC(=O)N[C@@H](CS)C(N)=O [Ce-2 T13G]", "9.2e-10"),
    ("CC(C)C[C@H](NC(=O)[C@H](Cc1ccc(O)cc1)NC(=O)[C@@H]1CSCC(=O)N[C@H](Cc2ccc(O)cc2)C(=O)N[C@@H](CC(=O)O)C(=O)N[C@@H](Cc2ccc(O)cc2)C(=O)N2CCC[C@H]2C(=O)NCC(=O)N[C@@H](CC(=O)O)C(=O)N[C@@H](Cc2ccc(O)cc2)C(=O)N1)C(=O)N[C@@H](Cc1ccc(O)cc1)C(=O)NCC(=O)N[C@@H](Cc1c[nH]cn1)C(=O)N[C@@H](CS)C(N)=O [Ce-2 T13H]", "3.77e-09"),
]

###

# measured-target: E. coli iPGM (Escherichia coli)
# assay-protocol: SPR binding kinetics and saturation binding, biotinylated iPGM on Biotin CAPture chip (Biacore S200)
# conditions: Supplementary Table 5, SPR, E.c. iPGM; LoQ = limit of quantitation
Criterion: koff meeting or surpassing 0.002 s⁻¹. Met: True. Not met: False.

# compound, answer-label
rows = [
    ("CC(C)C[C@H](NC(=O)[C@H](Cc1ccc(O)cc1)NC(=O)[C@@H]1CSCC(=O)N[C@H](Cc2ccc(O)cc2)C(=O)N[C@@H](CC(=O)O)C(=O)N[C@@H](Cc2ccc(O)cc2)C(=O)N2CCC[C@H]2C(=O)NCC(=O)N[C@@H](CC(=O)O)C(=O)N[C@@H](Cc2ccc(O)cc2)C(=O)N1)C(=O)N[C@@H](Cc1ccc(O)cc1)C(=O)NCC(=O)N[C@@H](Cc1c[nH]cn1)C(=O)N[C@@H](CS)C(N)=O [Ce-2 T13H]", "True"),
    ("CC(C)C[C@H](NC(=O)[C@H](Cc1ccc(O)cc1)NC(=O)[C@@H]1CSCC(=O)N[C@H](Cc2ccc(O)cc2)C(=O)N[C@@H](CC(=O)O)C(=O)N[C@@H](Cc2ccc(O)cc2)C(=O)N2CCC[C@H]2C(=O)NCC(=O)N[C@@H](CC(=O)O)C(=O)N[C@@H](Cc2ccc(O)cc2)C(=O)N1)C(=O)N[C@@H](Cc1ccc(O)cc1)C(=O)NCC(=O)N[C@H](C(=O)N[C@@H](CS)C(N)=O)[C@@H](C)O", "True"),
    ("CC(C)C[C@H](NC(=O)[C@H](Cc1ccc(O)cc1)NC(=O)[C@@H]1CSCC(=O)N[C@H](Cc2ccc(O)cc2)C(=O)N[C@@H](CC(=O)O)C(=O)N[C@@H](Cc2ccc(O)cc2)C(=O)N[C@@H](C(C)C)C(=O)NCC(=O)N[C@@H](CC(=O)O)C(=O)N[C@@H](Cc2ccc(O)cc2)C(=O)N1)C(=O)N[C@@H](Cc1ccc(O)cc1)C(=O)NCC(=O)N[C@H](C(=O)N[C@@H](CS)C(N)=O)[C@@H](C)O", "False"),
    ("CC(C)C[C@H](NC(=O)[C@H](Cc1ccc(O)cc1)NC(=O)[C@@H]1CSCC(=O)N[C@H](Cc2ccc(O)cc2)C(=O)N[C@@H](CC(=O)O)C(=O)N[C@@H](Cc2ccc(O)cc2)C(=O)N2CCC[C@H]2C(=O)NCC(=O)N[C@@H](CC(=O)O)C(=O)N[C@@H](Cc2c[nH]cn2)C(=O)N1)C(=O)N[C@@H](Cc1ccc(O)cc1)C(=O)NCC(=O)N[C@H](C(=O)NO)[C@@H](C)O", "True"),
]

###

Recorded kon, one value per entry.
# measured-target: E. coli iPGM (Escherichia coli)
# assay-protocol: SPR binding kinetics and saturation binding, biotinylated iPGM on Biotin CAPture chip (Biacore S200)
# conditions: Supplementary Table 5, SPR, E.c. iPGM; LoQ = limit of quantitation
Bridge positions count the residues as written; N and C are the ends. Square brackets hold non-standard residues; d marks the D form. Peptide text beside a SMILES is read from it. Nva = CCC[C@H](N)C(=O)O

# compound, unit-of-measurement, kon
records = [
    ("CCC[C@@H]1NC(=O)[C@@H](Cc2ccc(O)cc2)NC(=O)CSC[C@@H](C(=O)N[C@@H](Cc2ccc(O)cc2)C(=O)N[C@@H](CC(C)C)C(=O)N[C@@H](Cc2ccc(O)cc2)C(=O)NCC(=O)N[C@H](C(=O)N[C@@H](CS)C(N)=O)[C@@H](C)O)NC(=O)[C@H](Cc2ccc(O)cc2)NC(=O)[C@H](CC(=O)O)NC(=O)CNC(=O)[C@@H]2CCCN2C(=O)[C@H](Cc2ccc(O)cc2)NC1=O [Ce-2 D2Nva] ({CH2CO}-[dY][Nva]YPGDYCYLYGTC-NH2; thioether N-8)", "M⁻¹ s⁻¹", 132000),
    ("CC(C)C[C@H](NC(=O)[C@H](Cc1ccc(O)cc1)NC(=O)[C@@H]1CSCC(=O)N[C@H](Cc2ccc(O)cc2)C(=O)N[C@@H](CC(=O)O)C(=O)N[C@@H](Cc2ccc(O)cc2)C(=O)N2CCC[C@H]2C(=O)NCC(=O)N[C@@H](CC(=O)O)C(=O)N[C@@H](Cc2c[nH]cn2)C(=O)N1)C(=O)N[C@@H](Cc1ccc(O)cc1)C(=O)NCC(=O)N[C@H](C(=O)NO)[C@@H](C)O [Ce-1 NHOH]", "M⁻¹ s⁻¹", 181000),
]

###

# measured-target: C. elegans iPGM (Caenorhabditis elegans)
# assay-protocol: SPR binding kinetics and saturation binding, biotinylated iPGM on Biotin CAPture chip (Biacore S200)
Bridge positions count the residues as written; N and C are the ends. Square brackets hold non-standard residues; d marks the D form. Peptide text beside a SMILES is read from it. Nva = CCC[C@H](N)C(=O)O

# compound, koff
records = [
    ("CC(C)C[C@H](NC(=O)[C@H](Cc1ccc(O)cc1)NC(=O)[C@@H]1CSCC(=O)N[C@H](Cc2ccc(O)cc2)C(=O)N[C@@H](CC(=O)O)C(=O)N[C@@H](Cc2ccc(O)cc2)C(=O)N2CCC[C@H]2C(=O)NCC(=O)N[C@@H](CC(=O)O)C(=O)N[C@@H](Cc2ccc(O)cc2)C(=O)N1)C(=O)N[C@@H](Cc1ccc(O)cc1)C(=O)NCC(=O)N[C@@H](CO)C(=O)N[C@@H](CS)C(N)=O [Ce-2 Thr13Ser]", "7.83e-05 s⁻¹"),
    ("CCC[C@@H]1NC(=O)[C@@H](Cc2ccc(O)cc2)NC(=O)CSC[C@@H](C(=O)N[C@@H](Cc2ccc(O)cc2)C(=O)N[C@@H](CC(C)C)C(=O)N[C@@H](Cc2ccc(O)cc2)C(=O)NCC(=O)N[C@H](C(=O)N[C@@H](CS)C(N)=O)[C@@H](C)O)NC(=O)[C@H](Cc2ccc(O)cc2)NC(=O)[C@H](CC(=O)O)NC(=O)CNC(=O)[C@@H]2CCCN2C(=O)[C@H](Cc2ccc(O)cc2)NC1=O [Ce-2 D2Nva] ({CH2CO}-[dY][Nva]YPGDYCYLYGTC-NH2; thioether N-8)", "4.98e-05 s⁻¹"),
    ("CC(C)C[C@H](NC(=O)[C@H](Cc1ccc(O)cc1)NC(=O)[C@@H]1CSCC(=O)N[C@H](Cc2ccc(O)cc2)C(=O)N[C@@H](CC(=O)O)C(=O)N[C@@H](Cc2ccc(O)cc2)C(=O)N2CCC[C@H]2C(=O)NCC(=O)N[C@@H](CC(=O)O)C(=O)N[C@@H](Cc2ccc(O)cc2)C(=O)N1)C(=O)N[C@@H](Cc1ccc(O)cc1)C(=O)NCC(=O)N[C@H](C(=O)N[C@@H](CS)C(N)=O)[C@@H](C)O [Ce-2]", "3.23e-05 s⁻¹"),
]

###

# measured-target: C. elegans iPGM (Caenorhabditis elegans, UniProt G5EFZ1)
# assay-protocol: SPR binding kinetics and saturation binding, biotinylated iPGM on Biotin CAPture chip (Biacore S200)
Bridge positions count the residues as written; N and C are the ends. Square brackets hold non-standard residues; d marks the D form. Peptide text beside a SMILES is read from it. Nva = CCC[C@H](N)C(=O)O; Abu = CC[C@H](N)C(=O)O
Recorded Kd, one value per entry.
outcome-measure: Kd (pM)

# compound, experimental-result
data = [
    ("CC(C)C[C@H](NC(=O)[C@H](Cc1ccc(O)cc1)NC(=O)[C@@H]1CSCC(=O)N[C@H](Cc2ccc(O)cc2)C(=O)N[C@@H](CC(=O)O)C(=O)N[C@@H](Cc2ccc(O)cc2)C(=O)N2CCC[C@H]2C(=O)NCC(=O)N[C@@H](CC(=O)O)C(=O)N[C@@H](Cc2c[nH]cn2)C(=O)N1)C(=O)N[C@@H](Cc1ccc(O)cc1)C(=O)NCC(=O)N[C@H](C(=O)NO)[C@@H](C)O", 109),
    ("CCC[C@@H]1NC(=O)[C@@H](Cc2ccc(O)cc2)NC(=O)CSC[C@@H](C(=O)N[C@@H](Cc2ccc(O)cc2)C(=O)N[C@@H](CC(C)C)C(=O)N[C@@H](Cc2ccc(O)cc2)C(=O)NCC(=O)N[C@H](C(=O)N[C@@H](CS)C(N)=O)[C@@H](C)O)NC(=O)[C@H](Cc2ccc(O)cc2)NC(=O)[C@H](CC(=O)O)NC(=O)CNC(=O)[C@@H]2CCCN2C(=O)[C@H](Cc2ccc(O)cc2)NC1=O [Ce-2 D2Nva] ({CH2CO}-[dY][Nva]YPGDYCYLYGTC-NH2; thioether N-8)", 25.7),
    ("CC(C)C[C@H](NC(=O)[C@H](Cc1ccc(O)cc1)NC(=O)[C@@H]1CSCC(=O)N[C@H](Cc2ccc(O)cc2)C(=O)N[C@@H](CC(=O)O)C(=O)N[C@@H](Cc2ccc(O)cc2)C(=O)N[C@@H](C(C)C)C(=O)NCC(=O)N[C@@H](CC(=O)O)C(=O)N[C@@H](Cc2ccc(O)cc2)C(=O)N1)C(=O)N[C@@H](Cc1ccc(O)cc1)C(=O)NCC(=O)N[C@H](C(=O)N[C@@H](CS)C(N)=O)[C@@H](C)O", 66.8),
    ("CC(C)C[C@H](NC(=O)[C@H](Cc1ccc(O)cc1)NC(=O)[C@@H]1CSCC(=O)N[C@H](Cc2ccc(O)cc2)C(=O)N[C@@H](CC(=O)O)C(=O)N[C@@H](Cc2ccc(O)cc2)C(=O)N2CCC[C@H]2C(=O)NCC(=O)N[C@@H](CC(=O)O)C(=O)N[C@@H](Cc2ccc(O)cc2)C(=O)N1)C(=O)N[C@@H](Cc1ccc(O)cc1)C(=O)NCC(=O)NCC(=O)N[C@@H](CS)C(N)=O [Ce-2 T13G]", 43.3),
    ("CC(C)C[C@H](NC(=O)[C@H](Cc1ccc(O)cc1)NC(=O)[C@@H]1CSCC(=O)N[C@H](Cc2ccc(O)cc2)C(=O)N[C@@H](CC(=O)O)C(=O)N[C@@H](Cc2ccc(O)cc2)C(=O)N2CCC[C@H]2C(=O)NCC(=O)N[C@@H](CC(=O)O)C(=O)N[C@@H](Cc2ccc(O)cc2)C(=O)N1)C(=O)N[C@@H](Cc1ccc(O)cc1)C(=O)NCC(=O)N[C@@H](CO)C(=O)N[C@@H](CS)C(N)=O", 28.7),
    ("CC(C)C[C@H](NC(=O)[C@H](Cc1ccc(O)cc1)NC(=O)[C@@H]1CSCC(=O)N[C@H](Cc2ccc(O)cc2)C(=O)N[C@@H](CC(=O)O)C(=O)N[C@@H](Cc2ccc(O)cc2)C(=O)N2CCC[C@H]2C(=O)NCC(=O)N[C@@H](CC(=O)O)C(=O)N[C@@H](Cc2ccc(O)cc2)C(=O)N1)C(=O)N[C@@H](Cc1ccc(O)cc1)C(=O)NCC(=O)N[C@@H](Cc1c[nH]cn1)C(=O)N[C@@H](CS)C(N)=O [Ce-2 T13H]", 26.4),
    ("CC(C)C[C@H](NC(=O)[C@H](Cc1ccc(O)cc1)NC(=O)[C@@H]1CSCC(=O)N[C@H](Cc2ccc(O)cc2)C(=O)N[C@@H](CC(=O)O)C(=O)N[C@@H](Cc2ccc(O)cc2)C(=O)N2CCC[C@H]2C(=O)NCC(=O)N[C@@H](CC(=O)O)C(=O)N[C@@H](Cc2ccc(O)cc2)C(=O)N1)C(=O)N[C@@H](Cc1ccc(O)cc1)C(=O)NCC(=O)N[C@H](C(=O)N[C@@H](CS)C(N)=O)[C@@H](C)O", 38.2),
    ("CC(C)C[C@H](NC(=O)[C@H](Cc1ccc(O)cc1)NC(=O)[C@@H]1CSCC(=O)N[C@H](Cc2ccc(O)cc2)C(=O)N[C@@H](CC(=O)O)C(=O)N[C@@H](Cc2ccc(O)cc2)C(=O)N2CCC[C@H]2C(=O)NCC(=O)N[C@@H](CC(=O)O)C(=O)N[C@@H](Cc2ccc(O)cc2)C(=O)N1)C(=O)N[C@@H](Cc1ccc(O)cc1)C(=O)NCC(=O)NCC(=O)NO [Ce-2 T13G, C14NHOH]", 16300),
    ("CC[C@@H]1NC(=O)[C@@H](Cc2ccc(O)cc2)NC(=O)CSC[C@@H](C(=O)N[C@@H](Cc2ccc(O)cc2)C(=O)N[C@@H](CC(C)C)C(=O)N[C@@H](Cc2ccc(O)cc2)C(=O)NCC(=O)N[C@H](C(=O)N[C@@H](CS)C(N)=O)[C@@H](C)O)NC(=O)[C@H](Cc2ccc(O)cc2)NC(=O)[C@H](CC(=O)O)NC(=O)CNC(=O)[C@@H]2CCCN2C(=O)[C@H](Cc2ccc(O)cc2)NC1=O [Ce-2 D2Abu] ({CH2CO}-[dY][Abu]YPGDYCYLYGTC-NH2; thioether N-8)", 15.7),
]
